target: human STING protein (Homo sapiens (Human), UniProt Q86WV6); assay: WT STING binding assay (HTRF, competition with labeled 2′3′cGAMP); details: recombinant 6×His-tagged human STING, three hours at room temperature
Sequence (Q86WV6 whole entry): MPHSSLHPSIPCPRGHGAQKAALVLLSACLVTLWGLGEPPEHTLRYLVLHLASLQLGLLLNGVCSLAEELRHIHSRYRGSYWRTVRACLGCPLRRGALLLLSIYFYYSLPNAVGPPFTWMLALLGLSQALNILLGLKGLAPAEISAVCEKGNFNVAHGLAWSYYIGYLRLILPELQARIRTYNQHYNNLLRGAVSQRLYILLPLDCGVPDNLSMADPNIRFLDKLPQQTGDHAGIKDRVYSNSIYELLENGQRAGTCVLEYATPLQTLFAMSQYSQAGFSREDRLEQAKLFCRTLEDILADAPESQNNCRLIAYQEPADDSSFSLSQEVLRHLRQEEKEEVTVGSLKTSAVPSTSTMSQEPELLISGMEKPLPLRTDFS
pIC50: −log10 of the molar value.
outcome-measure: pIC50

> print(dat)
                                    compound  reported.measurement
 1  COc1cc(C(=O)O)c(NC(=O)c2ccc(-n3ccnc3)nn2)cc1CCOc1cc(NC(=O)c2ccc3nnnn3n2)c(C(=O)O)cc1F          6.00 to 7.00
 2  O=C(Nc1cc(OCCc2cc(NC(=O)c3ccc(-n4ccnc4)nn3)c(C(O)C(=O)O)cc2F)c(F)cc1C(=O)O)c1ccc(-n2ccnc2)nn1 (centres unmarked)          6.00 to 7.00
 3  O=C(Nc1cc(CCOc2c(F)cc(C(=O)O)c(NC(=O)c3ccc(-n4ccnc4)nn3)c2F)c(F)cc1C(=O)O)c1ccc(-n2ccnc2)nn1          6.00 to 7.00
 4  COC(=O)c1ccc(CCCc2cc(C(=O)O)c(NC(=O)c3ccc(-n4ccnc4)nn3)cc2F)cc1NC(=O)c1ccc(-n2ccnc2)nn1          6.00 to 7.00
 5  COc1cc(NC(=O)c2ccc(-n3ccnc3)nn2)c(C(=O)O)c(F)c1OCCc1cc(NC(=O)c2ccc(-n3ccnc3)nn2)c(C(=O)O)cc1F          6.00 to 7.00
 6  COc1cc(C(=O)O)c(NC(=O)c2ccc3nnnn3n2)cc1OCCc1cc(NC(=O)c2ccc(-n3ccnc3)nn2)c(C(=O)O)cc1F          6.00 to 7.00
 7  COc1cc(C(=O)O)c(NC(=O)c2ccc(-n3ccnc3)nn2)cc1OCCCCOc1ccc(C(=O)O)c(NC(=O)c2ccc(-n3ccnc3)nn2)c1          6.00 to 7.00
 8  COc1cc(C(=O)O)c(NC(=O)c2ccc3nnnn3n2)cc1CCOc1cc(NC(=O)c2ccc(-n3ccnc3)nn2)c(C(=O)O)cc1F          6.00 to 7.00
 9  O=C(Nc1cc(CCCc2cnc(C(=O)O)c(NC(=O)c3ccc4nnnn4n3)c2)c(F)cc1C(=O)O)c1ccc(-n2ccnc2)nn1          7.00 to 8.00
10  Cn1nccc1-c1ccc(C(=O)Nc2cc(CCOc3cc(NC(=O)c4ccc(-c5ccnn5C)nn4)c(C(=O)O)cc3F)c(F)cc2C(=O)O)nn1          6.00 to 7.00
11  O=C(Nc1cc(CCOc2cc(NC(=O)c3ccc4nnnn4n3)c(C(=O)O)cc2F)ccc1C(=O)O)c1ccc(-n2ccnc2)nn1          7.00 to 8.00
